Molecular target: T1, Recombinant MBP-mutCALR Type 1 fusion protein (human)
T1 construct: custom made at Cepter; also called recombinant mutCALR protein
Test: SPR, IgG captured, 1:1 fit, Exp. 2
READOUT: koff (s⁻¹)
Give just the number in s⁻¹; leave the unit off.

Here is how some binders turned out for koff.
{"BINDER": "anti-mutCALR antibody clone 139 (antibody, human IgG1, lambda, N297A, V domains shown, human IgG1 N297A variant of clone 15) VH: EVQLVQSGAEVKKPGASVKVSCKVSGYTLTELSMQWVRQAPGKGLEWMGGFDPDDGETMYAEKFQGRLTVTEDTSTDTVYMELSSLRSEDTAVYFCATSPGYDFFDYWGQGTLVTVSS VL: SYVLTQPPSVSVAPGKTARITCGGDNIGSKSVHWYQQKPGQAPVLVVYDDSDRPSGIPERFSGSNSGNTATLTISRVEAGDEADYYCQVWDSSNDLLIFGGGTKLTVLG", "koff, s⁻¹": 0.000953}
{"BINDER": "anti-mutCALR antibody clone 185 (antibody, human IgG1, lambda, N297A, V domains shown, human IgG1 N297A variant of clone 17) VH: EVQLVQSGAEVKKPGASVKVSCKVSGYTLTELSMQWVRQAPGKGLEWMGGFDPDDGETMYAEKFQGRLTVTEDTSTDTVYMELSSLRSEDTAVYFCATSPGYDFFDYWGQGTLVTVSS VL: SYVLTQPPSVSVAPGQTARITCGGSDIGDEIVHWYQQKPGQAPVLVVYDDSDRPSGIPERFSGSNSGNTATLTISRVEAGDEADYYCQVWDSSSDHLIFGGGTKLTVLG", "koff, s⁻¹": 0.000911}
{"BINDER": "anti-mutCALR antibody clone 32 (antibody, human IgG1, lambda, V domains shown, human IgG1) VH: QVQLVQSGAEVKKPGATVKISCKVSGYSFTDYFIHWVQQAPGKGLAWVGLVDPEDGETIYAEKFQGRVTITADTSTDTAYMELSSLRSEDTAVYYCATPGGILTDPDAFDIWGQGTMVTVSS VL: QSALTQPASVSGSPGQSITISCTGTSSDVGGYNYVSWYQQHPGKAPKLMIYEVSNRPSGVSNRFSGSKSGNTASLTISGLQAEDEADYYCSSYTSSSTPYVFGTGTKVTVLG", "koff, s⁻¹": 0.00314}
{"BINDER": "anti-mutCALR antibody clone 186 (antibody, human IgG1, lambda, N297A, V domains shown, human IgG1 N297A variant of clone 17) VH: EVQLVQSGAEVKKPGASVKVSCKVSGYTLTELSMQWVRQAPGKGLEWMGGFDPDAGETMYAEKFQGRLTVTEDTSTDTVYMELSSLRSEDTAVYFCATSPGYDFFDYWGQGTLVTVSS VL: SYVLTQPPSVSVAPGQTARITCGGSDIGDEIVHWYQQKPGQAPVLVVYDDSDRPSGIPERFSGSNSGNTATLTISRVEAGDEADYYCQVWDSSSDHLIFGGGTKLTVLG", "koff, s⁻¹": 0.00243}

Continue with the binder presented below.
Enquiry: koff lookup needed for anti-mutCALR antibody clone 36 (antibody, human IgG1, lambda, V domains shown, human IgG1) VH: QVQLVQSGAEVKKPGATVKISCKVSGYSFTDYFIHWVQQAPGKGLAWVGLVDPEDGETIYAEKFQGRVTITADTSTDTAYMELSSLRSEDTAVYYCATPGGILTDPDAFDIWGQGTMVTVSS VL: QSALTQPRSVSGSPGQSVTISCAGTGSDVGGYNYVSWYQHHPGKAPKLMIYDVNKRPSGVPDRFSGSKSGNTASLTISGLQAEDEADYYCSSYTSSSTFYVFGTGTKVTVLG , thanks.
Return: 0.00166

The values you see were collected from patent US20230272055A1.
